- Test system: Saccharomyces cerevisiae
- protocol-details: protein stability index of tFT-peptide fusion (C-terminal peptide) (PSI (0-1 scale)); higher = more stable (slower turnover);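 note: PSI is a weighted mean of sequencing reads over stability bins, variants kept only with over 10 reads, mCherry proximal and sfGFP distal, peptide attached via GGGS linker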
- experimental-parameters: genetic background: das1 deletion; temperature: 30 C
Recorded protein stability index by entry
reported-endpoint: protein stability index

VCLWVEVLIVLG 0.136
LRLLSLIPPLSC 0.381
SCIFVSSYFFVF 0.364
YQHSRSGRNKII 0.652
RVWIVCYHVSSY 0.204
LRGIVSVWILRA 0.441
VFHMFGWCGGAR 0.673
GTRAGNPDRQRS 0.638
SSRPLSPQSLRL 0.601
VVPVGLYSVILV 0.322

---

- System: Saccharomyces cerevisiae
- protocol-details: protein stability index of tFT-peptide fusion (C-terminal peptide) (PSI (0-1 scale)); higher = more stable (slower turnover)
- experimental-parameters: genetic background: doa10 deletion; temperature: 30 C
If the reported protein stability index equals or exceeds 0.2, assign label 1. If not, assign label 0.

YIRINNIYWKKS label 0
YPVGAAFIRARA label 1
WSFAPRLRCSYL label 1
CFGFMFLLLFDV label 1
SGMLVYFGTVCY label 1
SCIFVSSYFFVF label 0
YQHSRSGRNKII label 0
SLFSPPVLATPS label 1
LPVPARPFPPSS label 1
VVIWWFSAVVSV label 0
VFWLLVAVLRYW label 1
SLGHIGFWRFAG label 0
YLVSFVAFLRLF label 0
YHGVYLARVLQA label 1
IRRWGRCRVRCM label 1
SVLLVFRFFWEL label 1
FLIYMFRHCFFH label 1
FVVSCLSWVFLF label 0
YLFPHVRPKFPG label 1

---

- System: Saccharomyces cerevisiae
- protocol-details: protein stability index of tFT-peptide fusion (C-terminal peptide) (PSI (0-1 scale)); higher = more stable (slower turnover)
- experimental-parameters: genetic background: wild type; temperature: 30 C
Recorded protein stability index by entry
reported-endpoint: protein stability index

RKFRAWIRITRT 0.377
GLSVSGLWGVFG 0.629
LVRGSRLIVIVG 0.423
LAVILLVLPGND 0.563
RGWGGGTWVKMG 0.301
RAPGPGQIRLVQ 0.72
PPPLTPPPPPPR 0.725
GFGFMGLRFGVD 0.762
AFGAPVVRHATF 0.723
GSREHYGLFLGH 0.673
TSRNFPGLHDNY 0.673
AMGILSHLTACW 0.659
GSGTPRTPCLSH 0.642
WGIPRRPTLFIP 0.434
AVPPQLAPPRPL 0.679
LRSRTPPSPHFP 0.626
TVQPGAVRFILF 0.703
LHAGHSNSVLAF 0.601
NSPTYEEKERHL 0.82

---

Recorded protein stability index by entry
- Tested on: Saccharomyces cerevisiae
- protocol-details: protein stability index of tFT-peptide fusion (C-terminal peptide) (PSI (0-1 scale)); higher = more stable (slower turnover)
- experimental-parameters: genetic background: wild type; temperature: 30 C
reported-endpoint: protein stability index

FFFPFLCIAVSL 0.413
VGVSVVMVVEVP 0.042
WIYKIVTYEKKS 0.633
RKFRAWIRITRT 0.247
CASIVDGFAFRF 0.679
ALLVLTVSYVFS 0.0839
SAVLFLLFVYVR 0.14
SPLLPPPLLFLS 0.168
FGKGRSLLLVFS 0.395
FCFCLVLRVFLG 0.162
PFSLCFVFPFFF 0.174
KEKGVTKIRISS 0.195
LLTAARAQLFAV 0.477
VFFLFAVCSVLV 0.0857
FYSLVQAWSKAP 0.415
LFLSFLLLYFRP 0.313
GGVWSAFAVWVC 0.0784
ASSFYVDLVLVS 0.327
WCAVRVWFGAAL 0.424
SWVVLVSFLSWR 0.232
VFCSVGVSLFFG 0.284
GGGGGGRWGRLC 0.232
VQWPLLVVGCMG 0.251
VVPVGLYSVILV 0.306
FFRLFAPLLVVL 0.178
CALFLLSSPSPT 0.645
YVQTKKTRYVLV 0.343
DILQITNIKQKR 0.654
LFWPPCYLFFCL 0.324
SARSYLTERLLA 0.162
VLAFFPLFFFLS 0.126
WSFAPRLRCSYL 0.792
KLRIVYAKVVCS 0.274
VSPATFLFYFFF 0.396
VFLVFSVWVVYR 0.218
WGGEFLSLTLSS 0.683
HNLIRKHAKESS 0.249
VFHMFGWCGGAR 0.673
LLLFSFAALANF 0.283
VFWLLVAVLRYW 0.222
SSRPLSPQSLRL 0.605
